target or system: AMPA type receptors
test summary: ³H-AMPA binding (Test 1)
test parameters: displacement of 50% of specific binding of ³H-AMPA (5 nM); rat cerebral cortical membrane homogenate, 0°C, 30 min
test readout: Test 1 IC50 (µg/mL)

• O=c1[nH]c2cc([N+](=O)[O-])c3c(C(F)(F)F)cccc3c2[nH]c1=O [Example 8] = 0.55
• N#Cc1cc2[nH]c(=O)c(=O)[nH]c2c2ccc(S(N)(=O)=O)cc12 [Example 11] = 0.17
• NC(=O)CNS(=O)(=O)c1ccc2c(c1)c([N+](=O)[O-])cc1[nH]c(=O)c(=O)[nH]c12 [Example 21] = 0.16
• NC(=O)c1ccc2c(c1)c([N+](=O)[O-])cc1[nH]c(=O)c(=O)[nH]c12 [Example 14] = 0.07

* * *

Listed below: IC50 values for each entry.
System: quisqualic acid stimulated spreading depression in chicken retina
test summary: Spreading depression (Test 2)
Assay type: cell-based
test parameters: Gallus gallus; concentration producing 50% maximal inhibition of quisqualic acid stimulated spreading depression; chick retina, quisqualate 1 µg/ml, 26°C
test readout: IC50

- O=c1[nH]c2cc([N+](=O)[O-])c3c(C(F)(F)F)cccc3c2[nH]c1=O: 1.3 µg/mL
- N#Cc1cc2[nH]c(=O)c(=O)[nH]c2c2ccc(S(N)(=O)=O)cc12: 0.54 µg/mL
- NC(=O)c1ccc2c(c1)c([N+](=O)[O-])cc1[nH]c(=O)c(=O)[nH]c12: 0.41 µg/mL
- NC(=O)CNS(=O)(=O)c1ccc2c(c1)c([N+](=O)[O-])cc1[nH]c(=O)c(=O)[nH]c12: 1 µg/mL
